# Tested System: P2Y1 receptor (Homo sapiens, UniProt P47900)
# Construct: expressed in transfected cells
# Sequence (P47900 whole entry): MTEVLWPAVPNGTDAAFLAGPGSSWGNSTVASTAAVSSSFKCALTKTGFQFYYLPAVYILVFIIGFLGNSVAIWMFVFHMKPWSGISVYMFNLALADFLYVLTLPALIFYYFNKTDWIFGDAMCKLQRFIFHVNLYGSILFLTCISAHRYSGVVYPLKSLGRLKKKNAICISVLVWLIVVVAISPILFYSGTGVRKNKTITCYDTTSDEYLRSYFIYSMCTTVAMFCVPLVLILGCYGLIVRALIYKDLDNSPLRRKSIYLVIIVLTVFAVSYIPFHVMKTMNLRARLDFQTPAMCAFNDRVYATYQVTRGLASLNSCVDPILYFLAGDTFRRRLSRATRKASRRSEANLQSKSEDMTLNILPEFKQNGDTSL
# Method Summary: P2Y1 IP1 accumulation HTRF assay, antagonism of agonist MRS2365 in stably transfected cells
# Type: cell-based
# Conditions: racemic; 5nM MRS2365; values rounded to nearest whole number; N >= 4
Observed Property: IC50 (nM)

See these solved cases before continuing.
- Compound: "Fc1ccc(Oc2ncccc2Nc2nc3ccc(C(F)(F)F)cc3[nH]2)c(C2(C(F)(F)F)CCO2)c1 (racemic) [S97]"
  Unit Name: "nM"
  IC50: 1010
- Compound: "O=C(Nc1ccc(C(F)(F)F)nc1)Nc1cccnc1Oc1ccccc1C1(C(F)(F)F)CCO1 (racemic) [S71]"
  Unit Name: "nM"
  IC50: 1480
- Compound: "Cc1c(Oc2ncccc2NC(=O)Nc2ccc(OC(F)(F)F)cc2)cccc1N1CCC1 (racemic) [S94]"
  Unit Name: "nM"
  IC50: 889
- Compound: "O=C(Nc1ccc(C(F)(F)F)cc1)Nc1cccnc1Oc1ccccc1C1(C(F)(F)F)CCO1 (racemic) [S25]"
  Unit Name: "nM"
  IC50: 146
- Compound: "O=C(Nc1ccc(OC(F)(F)F)cc1)Nc1cccnc1Oc1cccc(C2COC2)c1 (racemic) [S92]"
  Unit Name: "nM"
  IC50: 2790
- Compound: "O=C(Nc1ccc(F)cc1F)Nc1cccnc1Oc1ccccc1C1(C(F)(F)F)CCO1 (racemic) [S65]"
  Unit Name: "nM"
  IC50: 983

a: O=C(Nc1ccc(OC2CC(F)(F)C2)cc1)Nc1cccnc1Oc1ccccc1C1(C(F)(F)F)CCO1 (racemic) [S36]
b: Cc1ncc(NC(=O)Nc2ccc(OC3CC(F)(F)C3)cc2)c(Oc2ccccc2C2(C(F)(F)F)CCO2)n1 (racemic) [S81]
c: O=C(Nc1cccc(OC(F)(F)F)c1)Nc1cccnc1Oc1ccc(F)cc1C1(C(F)(F)F)CCO1 (racemic) [S49]
d: COc1cc(NC(=O)Nc2ccc(C)nc2Oc2ccccc2C2(C(F)(F)F)CCO2)ccc1F (racemic) [S67]
e: Cc1ccc(NC(=O)Nc2ccc(OC(F)(F)F)cc2)c(Oc2ccccc2C2(C(F)(F)F)CCN2C)n1 (racemic) [S6]
Task: Ordering: ascending IC50. Please list the labels in the order you were asked to rank them.
Output: e, a, c, d, b

a: O=C(Nc1ccc(OC(F)(F)F)cc1)Nc1cccnc1Oc1c(F)cccc1C1(C(F)(F)F)CCO1 (racemic) [S37]
b: O=C(Nc1ccc(OC(F)(F)F)cc1)Nc1cccnc1Oc1ccc(F)cc1C1(C(F)(F)F)CCO1 (racemic) [S26]
Task: Please indicate which has the smaller reported IC50: a , or b . // caller expects the label of the chosen entry
Output: b
(b: 152 nM, a: 220 nM)
